Assay: Compound was evaluated for ocular toxicity assessed after oral dosing at 40 mg/kg b.i.d. in male Wistar rat; No
Type: organism-based, Eye
Parameters: dose 40 mg/kg, route oral
Conditions: in vivo
OUTCOME MEASURE: Eye toxicity

CHEMICAL STRUCTURE: FC(F)(F)c1cccc(N2CCN(c3ccc(-c4ncns4)nn3)CC2)c1
Eye toxicity: No toxicity

CHEMICAL STRUCTURE: Nc1nsc(-c2ccc(N3CCN(c4cccc(C(F)(F)F)c4)CC3)nn2)n1
Eye toxicity: No toxicity

CHEMICAL STRUCTURE: FC(F)(F)c1cc(N2CCN(c3ccc(-c4ncns4)nn3)CC2)cc(C(F)(F)F)c1
Eye toxicity: No toxicity

CHEMICAL STRUCTURE: Cc1nsc(-c2ccc(N3CCN(c4cccc(C(F)(F)F)c4)CC3)nc2)n1
Eye toxicity: No toxicity

CHEMICAL STRUCTURE: CCc1nsc(-c2ccc(N3CCN(c4cccc(C(F)(F)F)c4)CC3)nn2)n1
Eye toxicity: No toxicity

CHEMICAL STRUCTURE: FC(F)(F)c1cccc(NC2CCN(c3ccc(-c4ncns4)nn3)CC2)c1
Eye toxicity: No toxicity

CHEMICAL STRUCTURE: Cc1nsc(-c2ccc(N3CCN(c4cccc(C(F)(F)F)c4)CC3)cc2)n1
Eye toxicity: No toxicity

CHEMICAL STRUCTURE: CN(C)c1nsc(-c2ccc(N3CCN(c4cccc(C(F)(F)F)c4)CC3)nn2)n1
Eye toxicity: No toxicity

CHEMICAL STRUCTURE: FC(F)(F)c1cccc(N2CCN(C3CCN(c4ccc(-c5ncns5)nn4)CC3)CC2)c1
Eye toxicity: No toxicity

CHEMICAL STRUCTURE: CNc1nsc(-c2ccc(N3CCN(c4cccc(C(F)(F)F)c4)CC3)nn2)n1
Eye toxicity: No toxicity

## Task Entry Cc1nsc(-c2nccc(N3CCN(c4cccc(C(F)(F)F)c4)CC3)n2)n1 has what Eye toxicity?
## Result No toxicity

## Task And then CN(C)c1nsc(-c2ccc(N3CCN(c4ccccc4)CC3)nn2)n1 , what is it?
## Result No toxicity
